TESTED SYSTEM: T1, Egl1-819 (Drosophila melanogaster, UniProt Q9W1K4 1-819)
T1 sequence: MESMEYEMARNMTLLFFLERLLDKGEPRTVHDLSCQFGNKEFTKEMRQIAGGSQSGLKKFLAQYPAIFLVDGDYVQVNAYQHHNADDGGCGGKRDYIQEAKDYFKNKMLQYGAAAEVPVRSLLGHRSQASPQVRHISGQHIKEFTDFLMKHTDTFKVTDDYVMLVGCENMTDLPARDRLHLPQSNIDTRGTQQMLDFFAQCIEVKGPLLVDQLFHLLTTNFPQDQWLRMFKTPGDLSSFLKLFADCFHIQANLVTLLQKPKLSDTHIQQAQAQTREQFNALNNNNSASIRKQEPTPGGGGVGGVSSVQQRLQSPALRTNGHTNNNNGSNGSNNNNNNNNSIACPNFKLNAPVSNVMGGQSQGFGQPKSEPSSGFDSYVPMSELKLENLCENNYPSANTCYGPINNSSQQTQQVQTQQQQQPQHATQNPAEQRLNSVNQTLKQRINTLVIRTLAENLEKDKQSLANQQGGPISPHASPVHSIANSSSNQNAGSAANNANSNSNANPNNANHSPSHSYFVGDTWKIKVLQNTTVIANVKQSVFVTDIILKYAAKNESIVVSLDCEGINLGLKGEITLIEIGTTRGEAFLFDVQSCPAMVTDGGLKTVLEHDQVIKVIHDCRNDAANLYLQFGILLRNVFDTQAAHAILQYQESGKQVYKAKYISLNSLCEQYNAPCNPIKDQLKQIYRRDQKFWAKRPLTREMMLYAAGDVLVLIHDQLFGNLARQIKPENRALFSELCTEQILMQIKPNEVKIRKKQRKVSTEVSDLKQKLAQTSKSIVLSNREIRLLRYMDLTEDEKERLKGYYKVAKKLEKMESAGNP
TEST DETAILS: fluorescence anisotropy; FA: 20 mM HEPES-NaOH pH 7.5, 100 mM NaCl, 10% glycerol, 20 C, 10 nM FAM-RNA; competition: 150 nM Egl512-819 + 10 nM FAM-K10 TLS, same buffer
CONDITION DESCRIPTION: protein: recombinant; tags: N-terminal GST; label: 5'-6-FAM; hairpin with two bulges
RECORDED METRIC: Kd (µM)
Form entry: value (µM) — number only.

-- ask GET /values?readout=Kd&item= CUUGAUUGUAUUUUUAAAUUAAUUCUUAAAAACUACAAAUUAAG (structured_RNA) [K10 TLS (FAM)]
-- reply 0.127
